Source: patent US20250179078A1

Listed below: pIC50 values for each entry.
tested target: NLRP3 (Homo sapiens, UniProt Q96P20)
Sequence (Q96P20 whole entry): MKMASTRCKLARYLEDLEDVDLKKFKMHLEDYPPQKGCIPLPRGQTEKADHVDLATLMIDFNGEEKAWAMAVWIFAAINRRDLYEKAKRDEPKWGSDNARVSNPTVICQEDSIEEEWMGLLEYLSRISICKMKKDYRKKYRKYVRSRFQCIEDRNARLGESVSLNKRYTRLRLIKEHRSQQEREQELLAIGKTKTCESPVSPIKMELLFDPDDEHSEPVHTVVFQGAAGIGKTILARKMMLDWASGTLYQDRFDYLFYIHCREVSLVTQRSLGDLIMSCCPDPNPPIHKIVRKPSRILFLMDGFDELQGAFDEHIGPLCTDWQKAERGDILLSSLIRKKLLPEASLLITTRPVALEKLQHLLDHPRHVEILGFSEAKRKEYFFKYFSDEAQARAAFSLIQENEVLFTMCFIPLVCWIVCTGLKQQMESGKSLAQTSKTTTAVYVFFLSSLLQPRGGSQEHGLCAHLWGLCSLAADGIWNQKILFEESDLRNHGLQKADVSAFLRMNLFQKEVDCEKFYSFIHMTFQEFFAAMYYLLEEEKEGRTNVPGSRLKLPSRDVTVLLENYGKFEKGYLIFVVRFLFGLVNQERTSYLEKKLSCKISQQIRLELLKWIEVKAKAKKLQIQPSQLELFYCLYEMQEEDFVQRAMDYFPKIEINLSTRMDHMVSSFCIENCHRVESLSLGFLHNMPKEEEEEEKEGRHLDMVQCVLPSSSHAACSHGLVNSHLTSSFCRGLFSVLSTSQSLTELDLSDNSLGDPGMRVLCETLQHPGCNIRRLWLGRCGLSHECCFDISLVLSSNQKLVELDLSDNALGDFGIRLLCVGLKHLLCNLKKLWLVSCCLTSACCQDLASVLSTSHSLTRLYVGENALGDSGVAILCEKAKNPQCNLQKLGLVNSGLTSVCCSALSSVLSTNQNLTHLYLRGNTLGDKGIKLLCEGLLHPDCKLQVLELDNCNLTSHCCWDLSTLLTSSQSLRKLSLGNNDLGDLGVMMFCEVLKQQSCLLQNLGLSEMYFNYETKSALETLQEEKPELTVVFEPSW
assay name: IL-1β Secretion Assay (NLRP3-dependent IL1β secretion in THP1 cells)
experimental conditions: PMA-differentiated THP-1 cells; compounds incubated 20 h; 2.5 μM Nigericin 3 h; HTRF IL-1β readout; read-out: IC50 IL-1β Inhibition
Description: Monocytic THP-1 cells (ATCC: TIB-202) were maintained in growth media consisting of RPMI 1640 medium (ThermoFisher, Cat #11875-085), 10% FBS (ThermoFisher) and 0.05 mM β-mercaptoethanol (ThermoFisher, Cat #21985-023), according to the provider's instructions. […] Compounds, once produced and prepared according to the present invention, can be assessed in variety of assays to characterize their activities. For example, NLRP3-dependent IL1β secretion was evaluated in THP1 cells. […]
pIC50: −log10 of the molar value.

Example entries begin here.
compound	value measured
CCN1CCC[C@@H](Nc2nnc(-c3ccc(C(F)(F)F)cc3F)c3cccn23)C1	8.00 to 9.00
OCCN1CCC[C@@H](Nc2nnc(-c3ccc(Cl)cc3OC(F)F)c3cncn23)C1	7.00 to 8.00
COc1ccc(-c2nnc(N[C@@H]3CCCN(CCO)C3)n3cncc23)c(C(F)(F)F)c1	8.00 to 9.00
CCN1CCC[C@@H](Nc2nnc(-c3ccc(SC)cc3OC(F)(F)F)c3cc(C)nn23)C1	8.00 to 9.00
O[C@@H]1CCCC[C@H]1Nc1nnc(-c2ccc(C(F)(F)F)cc2C(F)(F)F)c2cncn12	> 9.00
COc1ccc(-c2nnc(N[C@@H]3CCCN(CCO)C3)n3cccc23)c(OC(F)(F)F)c1	> 9.00
C[C@]1(O)C[C@@H](Nc2nnc(-c3ccc(C(F)(F)F)cc3C(F)(F)F)c3ccnn23)C1	8.00 to 9.00
COc1ccc(-c2nnc(N[C@@H]3CCCN(C)C3)n3cccc23)c(OC(F)(F)F)c1	8.00 to 9.00

Task: Record Cc1ccc(-c2nnc(N[C@@H]3CCCN(CCO)C3)n3cccc23)c(OC(F)F)c1 : what is its pIC50 with NLRP3 (Homo sapiens, UniProt Q96P20)?
Result: 7.00 to 8.00

Task: Form field - read-out: pIC50; system: NLRP3 (Homo sapiens, UniProt Q96P20); submitted item: O[C@@H]1CCCC[C@H]1Nc1nnc(-c2ccc(C(F)(F)F)cc2OC(F)F)c2cccn12
Result: 8.00 to 9.00

Task: Item: COc1ccc(-c2nnc(N[C@@H]3CCCN(C)C3)n3cccc23)c(C2CC2)c1 Test system: NLRP3 (Homo sapiens, UniProt Q96P20) Read-out: pIC50 Value: ?
Result: 8.00 to 9.00

Task: Please provide the recorded pIC50 for Cc1ccc(-c2nnc(N[C@@H]3CCCC[C@H]3O)n3cccc23)c(OC(F)F)c1 , tested on NLRP3 (Homo sapiens, UniProt Q96P20).
Result: 8.00 to 9.00

Task: Lab note: need pIC50 with NLRP3 (Homo sapiens, UniProt Q96P20) for entry OCCN1CCC[C@@H](Nc2nnc(-c3ccc(C(F)(F)F)cc3C(F)(F)F)c3cncn23)C1 , please look it up.
Result: 8.00 to 9.00

Task: Identify the measured pIC50 of O[C@@H]1CCCC[C@H]1Nc1nnc(-c2ccc(C(F)(F)F)cc2CC(F)(F)F)c2cncn12 for NLRP3 (Homo sapiens, UniProt Q96P20).
Result: > 9.00
